I'd appreciate it if you could supply Kd values for the items below.
Target: T1, cMET-Tn peptide PTKSFISGGSTITGVGKNLN, glycosylated with GalNAc on the serine and threonine residues (O-linked GalNAc on the serine at position 10 and the threonine at position 11; N-terminal biotin in the form described for Biacore and Octet)
T1 construct: Synthetic 20-residue glycopeptide of cMET; GalNAc sites not given; also called Tn-glycosylated cMET peptide; cMET glycopeptide
T1 peptide: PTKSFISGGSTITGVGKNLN
Assay: BLI (Octet), peptide on biosensor, apparent affinity
A number alone suffices; assume nM.

Problem: Consider the binder shown here: 39A3 (antibody, V domains shown, Rabbit monoclonal antibody cloned from B cells) VH: QSLEEYGGDLVKPGASLTLTCTASGLDFSGIYWACWVRQAPGKGLEWIACMDNRVTYATWAKGRFTSSKTSSTTVTLQMTSLTAADTATYFCARGGYGGRGLVFNLWGQGTLVTVSS VL: DPVLTQTPPSVSAAVGGTVTIKCQSSQSVYNNNELSWYQQKPGQPPKLLIYDASTLASGVPSRFKGSGSGTQFTLTISGVQCDDAATYYCQGIYYIGDWYSAFGGGTEVVVKG What is its recorded Kd?
Result: 52

Problem: Consider the binder shown here: 16E12.1D9.1B11 (antibody, V domains shown, Mouse monoclonal antibody from a hybridoma) VH: QVQLQQSDAELVKPGASVKISCKASGYTFTDHAIHWVKQKPEQGLEWIGYFSPGNDDVRYSEKFKGKATLTADKSSSTAYMQLNSLTSEDSAVYFCKRSLPGDFDYWGQGTTLTVSS VL: DVQISQSPSYLAASPGETITINCRASKSINNYLVWYQEKPGKTIKPLIYSGSTLQTGTPSRFSGSGSGTDFSLTISSLEPEDFAMYYCQQHNEYPFTFGAGTKLELK What is its recorded Kd?
Result: 19.2

Problem: Consider the binder shown here: 15C4.1D8.1G2 (antibody, V domains shown, Mouse monoclonal antibody from a hybridoma (Balb/c mice immunised with the KLH-conjugated Tn-cMET glycopeptide)) VH: QVQLQQSDAELVKPGASVKISCKASGYTFTDHAIHWVKQKPEQGLEWIGYFSPGNGDIKYNEKFKGKATLTADKSSSTAYMQLNSLTSEDSAVYFCKRSLPGPMDCWGQGTSVTVSS VL: NIVMTQSPKSMSMSVGERVTLSCKASENVGIYVSWYQQKPEQSPKLLIYGPSNRYTGVPDRFTGSGSATDFTLTISSVQAEDLADYHCGQSYSYPFTFGSGTKLEIK What is its recorded Kd?
Result: 2.83

Problem: Consider the binder shown here: 8H3.2B9.2C7 (antibody, V domains shown, Mouse monoclonal antibody from a hybridoma; also called GO-8H3) VH: QVQLQQSDAELVKPGASVKISCKASGYTFTDHAIHWVKQRPEQGLEWIGYFSPGNGDIKYNEKFKDKATLTADKSSSTAYMQLNSLTSEDSAVYFCKRSLPGDFDYWGQGTTLTVSS VL: DVQITQSPSYLAASPGETITINCRASKSVSEYLAWYQEKPGKTNKLLIYSGSTLHSGIPSRFSGSGSGTDFTLTITSLAPEDFAMYFCQQHNEYPFTFGAGTKLELK What is its recorded Kd?
Result: 7

Problem: Consider the binder shown here: 14E9 (antibody, V domains shown, Rabbit monoclonal antibody cloned from B cells of immunised New Zealand White rabbits) VH: QEQLVESGGGLVEPGASLTLTCKASGIDFSSYWICWVRQAPGKGLEWVGCIYTGSGGNTYYATWAKGRFTVSETSSTTVTLRMTSLTAADTATYFCARMGYSAGYIGATYITVGAFNLWGQGTLVTVSS VL: DVVMTQTPASVGAAVGGTVTIKCQASQSISNWLAWYQQKPGQPPKLLIYSASYLESGVPSRFSGSGSGTEFTLTISDLECADAATYYCQCTYGSSGDSGSWDFGGGTEVVVKG What is its recorded Kd?
Result: 1.5
